Origin of measurements: patent US10168342B2

Field: SILAC ratio, Nampt. Provide a value for each of the compounds that follow.
Molecular target: AEA-DA lipid probe targets in Neuro2a cells (Mus musculus, UniProt Q99KQ4)
Sequence (Q99KQ4 whole entry): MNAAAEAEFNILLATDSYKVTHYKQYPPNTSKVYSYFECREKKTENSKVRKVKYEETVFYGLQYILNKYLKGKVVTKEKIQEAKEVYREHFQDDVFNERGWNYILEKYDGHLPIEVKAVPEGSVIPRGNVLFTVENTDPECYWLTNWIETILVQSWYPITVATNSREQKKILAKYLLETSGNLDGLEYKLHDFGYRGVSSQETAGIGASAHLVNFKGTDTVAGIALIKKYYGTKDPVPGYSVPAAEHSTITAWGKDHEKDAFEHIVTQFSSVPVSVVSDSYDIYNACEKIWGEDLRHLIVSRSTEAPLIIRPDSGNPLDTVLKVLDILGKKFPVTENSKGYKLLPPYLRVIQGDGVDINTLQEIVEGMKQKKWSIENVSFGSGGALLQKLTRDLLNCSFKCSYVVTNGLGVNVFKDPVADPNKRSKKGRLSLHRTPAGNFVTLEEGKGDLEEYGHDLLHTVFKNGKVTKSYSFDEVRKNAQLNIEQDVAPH
Conditions: competitor 25 μM

Known SILAC ratio, Nampt results, listed for orientation:
CN1CCN(C(=O)c2c(-c3ccccc3)c3cc([N+](=O)[O-])ccc3n2C)CC1; 2.0
C=CCN(C)CCCCCCOc1ccc(C(=O)c2ccc(Br)cc2)c(F)c1 [Ro 48-8071, reference compound]; 0.9
CN1CCN(C(=O)c2[nH]c3ccc([N+](=O)[O-])cc3c2-c2ccccc2)CC1; 1.2

Turning now to a further record.
Input line: Query (compound): O=C(/C=C/c1cccnc1)NCCCCC1CCN(C(=O)c2ccccc2)CC1 [FK-866, reference compound] ; field requested: SILAC ratio, Nampt
Output line: 16.4
